We begin with a simple list: items and their reported self-cleavage.
B1: CPEB3 Ribozyme (parent)
chain: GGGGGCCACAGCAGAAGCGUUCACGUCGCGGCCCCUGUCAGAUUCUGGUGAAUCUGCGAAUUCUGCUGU

variants of: B1; experiment: self-cleavage, relative activity (ratio to wild type); higher = more cleavage; co-transcriptional
readoutName: self-cleavage

itemSequence | readoutName | endpointResult
GGGGGCCACACCAGAAGCGUUCACGUCGCGGCCCCUGUCAGAUUCGGGUGAAUCUGCGAAUUCUGCUGU | self-cleavage | 0.849
GGGGGCCACAGCAGAAGCGUUCACGUCGCGGGACCUGUCAGAUUCUGGUGAAUCUGCGAAUUCUGCUGU | self-cleavage | 0.309
GGGGGCCACAGCAGAAGCAUUCACGUCGCGGCUCCUGUCAGAUUCUGGUGAAUCUGCGAAUUCUGCUGU | self-cleavage | 0.13
GGGGGCCACAGAAGAAGCGUUCACGUCGCGGCCCCUGUCAGGUUCUGGUGAAUCUGCGAAUUCUGCUGU | self-cleavage | 0.41
GGGGGCCACAGCAGAAGCUUUCACGUCGCGGCCCCUGUCAGAUUCUGGCGAAUCUGCGAAUUCUGCUGU | self-cleavage | 0.594
GGGGGCCACAGCAGAAGCGUUCACGUCGCGGCCCCUGUCAGAUUCCCGUGAAUCUGCGAAUUCUGCUGU | self-cleavage | 1.02
GGGGGCCACAGCAGAAGCGUUCACGUCGCGGCCCGUGUCAGUUUCUGGUGAAUCUGCGAAUUCUGCUGU | self-cleavage | 0.308
GGGGGCCACAGCAGAAGCGUUCACGUCGCGGCCCCUGUCAGAUUCUGGUGAAUCUGUGAUUUCUGCUGU | self-cleavage | 0.298
GGGGGCCACAGUAGAAGCGUUCACGUCCCGGCCCCUGUCAGAUUCUGGUGAAUCUGCGAAUUCUGCUGU | self-cleavage | 0.175
GGGGGCCACAGCAGAAGUGUUCACGUCGCGGCCCCUGUCAGAUUCUGGUGAAUCUGCGAAUUAUGCUGU | self-cleavage | 0.284
GGGGGCCACAGCAGAAGCGUUCACGUCGCGGCCCCUGUCAGAUUGUGGUGAAUCUGCUAAUUCUGCUGU | self-cleavage | 1.01
GGGGGCCACAGCAGAAGCGCUCACGGCGCGGCCCCUGUCAGAUUCUGGUGAAUCUGCGAAUUCUGCUGU | self-cleavage | 0.114
GAGGGCAACAGCAGAAGCGUUCACGUCGCGGCCCCUGUCAGAUUCUGGUGAAUCUGCGAAUUCUGCUGU | self-cleavage | 0.0557
GGGGGCCACAGCAGAAGCGUUCACGUCGCGGCCCCUGUCAGAUUUUGGUGAAUCUGCGAUUUCUGCUGU | self-cleavage | 0.469
GGGGGCCACAGCAGAAGCGUUCAUGUCGCGGCCCCUGUCAGAUUCUGGUGAAUCUGUGAAUUCUGCUGU | self-cleavage | 0.244
GGGGGCCACAGCAGUAGCGUUCACGUCGCGGCCCCUGUCAGAUUCUGGUGAAUCUGCGAAUUCUGCGGU | self-cleavage | 0.87
GGGAGCCACAGCAGGAGCGUUCACGUCGCGGCCCCUGUCAGAUUCUGGUGAAUCUGCGAAUUCUGCUGU | self-cleavage | 0.93
GGGGUCCACAGCAGAAGCGUUCACGUCGCGGCCCCUGUCAGAUCCUGGUGAAUCUGCGAAUUCUGCUGU | self-cleavage | 0.192
GGGGGCCACAGCAGGAGCGUUCACGUCGCGGCCCCUGUCAGAUUCUGGCGAAUCUGCGAAUUCUGCUGU | self-cleavage | 0.968
GGGGGCCACAGUAGAAGCGUUCUCGUCGCGGCCCCUGUCAGAUUCUGGUGAAUCUGCGAAUUCUGCUGU | self-cleavage | 0.963
GGGGGCCACAGCAGAAGCGUGCACGUCGCGGCCCCUGUCAGAUUCUGGUGAAUCUGCGAAUUCUGCUGA | self-cleavage | 0.667
GGGGGUCACAGCAGAAGCAUUCACGUCGCGGCCCCUGUCAGAUUCUGGUGAAUCUGCGAAUUCUGCUGU | self-cleavage | 0.117
